- target: ZNF721 full-length (Homo sapiens, UniProt Q8TF20-2 1-923)
- Sequence (Q8TF20 other isoform, or with tags, fused parts or gaps): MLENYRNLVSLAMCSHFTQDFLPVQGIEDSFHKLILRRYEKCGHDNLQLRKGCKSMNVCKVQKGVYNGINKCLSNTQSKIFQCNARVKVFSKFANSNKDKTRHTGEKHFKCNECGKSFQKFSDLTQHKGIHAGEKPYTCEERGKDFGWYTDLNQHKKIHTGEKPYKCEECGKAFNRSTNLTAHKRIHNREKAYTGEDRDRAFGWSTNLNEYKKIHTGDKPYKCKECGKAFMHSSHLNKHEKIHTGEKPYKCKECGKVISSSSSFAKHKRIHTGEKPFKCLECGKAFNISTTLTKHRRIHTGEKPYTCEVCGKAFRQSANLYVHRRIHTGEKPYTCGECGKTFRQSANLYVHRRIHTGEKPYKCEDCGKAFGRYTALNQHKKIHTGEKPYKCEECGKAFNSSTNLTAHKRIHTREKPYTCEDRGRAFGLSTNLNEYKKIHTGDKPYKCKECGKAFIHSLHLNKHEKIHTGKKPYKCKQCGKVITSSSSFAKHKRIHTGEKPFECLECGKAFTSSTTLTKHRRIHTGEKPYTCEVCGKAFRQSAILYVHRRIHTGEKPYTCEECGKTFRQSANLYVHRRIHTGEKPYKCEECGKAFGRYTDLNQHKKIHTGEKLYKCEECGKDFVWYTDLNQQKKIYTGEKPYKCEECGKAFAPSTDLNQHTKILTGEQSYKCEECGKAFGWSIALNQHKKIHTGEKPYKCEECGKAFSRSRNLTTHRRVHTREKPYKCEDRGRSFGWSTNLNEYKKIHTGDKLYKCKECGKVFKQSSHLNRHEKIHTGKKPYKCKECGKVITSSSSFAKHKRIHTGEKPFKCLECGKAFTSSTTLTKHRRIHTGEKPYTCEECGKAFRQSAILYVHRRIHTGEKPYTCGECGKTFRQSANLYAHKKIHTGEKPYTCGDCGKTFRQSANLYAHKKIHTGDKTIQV
- experiment-summary: HT-SELEX; 20 mM HEPES pH 7, 140 mM KCl, 5 mM NaCl, 1 mM K2HPO4, 2 mM MgSO4, 100 uM EGTA, ZnSO4, 0.1% Tween20; room temperature, 1 h; high values mean tight binding
- condition-notes: protein: ivt; tags: eGFP (N-terminal); dsDNA, one strand shown
metric-name: binding signal (relative 10-mer count)
Answers are plain numbers, in relative 10-mer count.

1. CAGGGTTGCC ... 0.155
2. GTGGTGGGGA ... 0.14
3. CCCACACACC ... 0.114
4. CCCCCGGCCC ... 0.102
5. AAAAAACAGG ... 0.278

// input: 5 sequences below; output: binding signal for each
1. CCCCCAACCC
2. AGGGTGGGGG
3. CCGCCACCCA
4. ACCCCCCTCC
5. GCCCCCCCCC

Out:
1: 0.233; 2: 0.202; 3: 0.107; 4: 0.142; 5: 0.112

The reported numbers originate from paper PMC13541613.
